# target.of.assay: full-length human PDE4D5 isozyme (Homo sapiens, UniProt Q08499)
# Construct: The full-length human PDE4D5 isozyme; His6 (N); TEV cleavage site (N); made in house; host or cells: baculovirus infected insect cells (unpurified lysate)
# Sequence (Q08499 1-745 isoform Q08499-6): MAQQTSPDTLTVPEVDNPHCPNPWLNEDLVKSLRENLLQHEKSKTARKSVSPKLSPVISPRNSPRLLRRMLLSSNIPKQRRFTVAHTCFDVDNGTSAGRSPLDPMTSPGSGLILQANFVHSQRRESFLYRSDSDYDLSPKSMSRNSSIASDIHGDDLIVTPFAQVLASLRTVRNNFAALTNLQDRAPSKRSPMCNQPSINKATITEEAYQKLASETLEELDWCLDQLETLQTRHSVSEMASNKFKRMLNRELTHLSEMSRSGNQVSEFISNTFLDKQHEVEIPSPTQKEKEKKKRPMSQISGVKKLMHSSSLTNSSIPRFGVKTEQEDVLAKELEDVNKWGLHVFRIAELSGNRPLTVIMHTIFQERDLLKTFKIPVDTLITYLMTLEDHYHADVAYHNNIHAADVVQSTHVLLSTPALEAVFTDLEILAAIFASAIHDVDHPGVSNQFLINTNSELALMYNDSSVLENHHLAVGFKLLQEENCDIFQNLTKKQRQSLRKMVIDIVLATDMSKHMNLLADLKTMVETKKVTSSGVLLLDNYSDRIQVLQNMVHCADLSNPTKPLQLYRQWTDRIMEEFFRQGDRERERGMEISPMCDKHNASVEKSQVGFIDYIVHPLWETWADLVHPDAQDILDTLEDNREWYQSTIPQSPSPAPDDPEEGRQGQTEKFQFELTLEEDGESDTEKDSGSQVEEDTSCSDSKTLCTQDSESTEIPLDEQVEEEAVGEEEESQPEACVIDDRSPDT
# test.description: PDE4 IC50 determination by Scintillation Proximity Assay, PDE4D5
# Type: biochemical
# applied.conditions: Table 1B, Formula I compounds; read-out: IC50 PDE4D5
pIC50: −log10 of the molar value.
This section presents compounds with their documented pIC50 values.

N#Cc1c(Nc2ccc3c(c2)CCC3)sc(C(=O)c2ccc(-c3ccccn3)s2)c1N < 5.00
Nc1c(C(=O)c2cc(-c3ccccc3)no2)sc(NC2CCCC2)c1C(=O)O > 5.00

So, N#Cc1c(NC2CCCC2)sc(C(=O)c2ccccc2)c1N ? Its pIC50 was > 5.00

Entry NC(=O)c1c(NC2CCCC2)sc(C(=O)c2cc(-c3ccccc3)no2)c1N ; pIC50 = > 5.00

----------
# target.of.assay: PDE4D (Homo sapiens)
# Construct: PDE4D: The catalytic domain of human PDE4B from S3 16-V692; His6 (N); thrombin cleavage site (N); made in house; host or cells: E. coli
# test.description: PDE4 IC50 determination by Scintillation Proximity Assay, PDE4D
# Assay type: biochemical
# applied.conditions: Table 1B, Formula I compounds; read-out: IC50 PDE4D
pIC50: −log10 of the molar value.
measure.name: pIC50

molecule	observed.value
CCOC(=O)c1c(Nc2ccccc2OC)sc(C(=O)c2ccccc2)c1N	> 5.00

Here's the next entry for you.
For reference, reported pIC50 for N#Cc1c(Nc2ccc(Oc3ccccc3)cc2)sc(C(=O)c2ccccn2)c1N stands at < 5.00

----------
Let's look at some compounds and their measured pIC50.
# target.of.assay: PDE4D (Homo sapiens, UniProt Q08499)
# Construct: PDE4D: The catalytic domain of human PDE4B from S3 16-V692; His6 (N); thrombin cleavage site (N); made in house; host or cells: E. coli
# Sequence (Q08499 380-756): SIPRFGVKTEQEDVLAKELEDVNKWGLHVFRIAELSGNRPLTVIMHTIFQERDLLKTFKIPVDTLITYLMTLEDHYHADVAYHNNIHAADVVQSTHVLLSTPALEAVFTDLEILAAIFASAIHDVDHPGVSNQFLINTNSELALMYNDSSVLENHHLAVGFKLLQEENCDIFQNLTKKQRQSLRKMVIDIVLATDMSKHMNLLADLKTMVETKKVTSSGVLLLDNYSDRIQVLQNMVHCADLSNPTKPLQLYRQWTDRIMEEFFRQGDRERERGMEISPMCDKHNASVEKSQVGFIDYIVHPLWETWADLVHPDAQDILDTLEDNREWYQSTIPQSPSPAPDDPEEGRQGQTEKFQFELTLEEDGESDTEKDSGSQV
# test.description: PDE4 IC50 determination by Scintillation Proximity Assay, PDE4D
# Format: biochemical
# applied.conditions: second part of Table 2B (2-23 to 2-103), column 5; column is PDE4D in first part; read-out: IC 50 vs. indicated assay h TNFα
pIC50: −log10 of the molar value.

Study these solved cases before continuing.
Nc1nc(Nc2cccc3ccccc23)sc1C(=O)c1ccccc1 > 5.00
Nc1nc(NC2CCCC2)sc1C(=O)c1nc2ccccc2s1 > 5.00
Nc1nc(Nc2ccc(Cl)cc2)sc1C(=O)c1cccc([N+](=O)[O-])c1 > 5.00
COc1cccc(C(=O)c2sc(NC(C)C)nc2N)c1 < 5.00
COc1ccc(C(=O)c2sc(Nc3ccc(Oc4ccccc4)cc3)nc2N)cc1 > 5.00

Value of measured pIC50 for the entry Nc1nc(NC2CC2)sc1C(=O)c1ccc(OC(F)F)cc1 : < 5.00

For Nc1nc(Nc2ccc(Cl)cc2)sc1C(=O)C1CCCC1 the compound record lists pIC50 as > 5.00

Measured pIC50, Nc1nc(NC2CCCC2)sc1C(=O)c1cccc(Cl)c1 : > 5.00

Lab note: Nc1nc(Nc2ccccc2)sc1C(=O)C1CC1 gave pIC50 of < 5.00

Record summary for Nc1nc(Nc2ccccc2F)sc1C(=O)c1cccc(Cl)c1 : reported pIC50 = > 5.00

// Nc1nc(Nc2cccc(C(=O)O)c2)sc1C(=O)c1ccccc1 : pIC50 value = > 5.00

Form field pIC50, entry COc1ccc(C(=O)c2sc(Nc3cccc(C#N)c3)nc2N)cc1 : > 5.00

The compound Nc1nc(NCc2ccccc2)sc1C(=O)c1ccccc1 showed pIC50 equal to > 5.00

// recorded pIC50 for Nc1nc(NC2CC2)sc1C(=O)c1cccc(C(F)(F)F)c1 : > 5.00
